B1: Homeobox protein cut-like 1, residues 548 to 629; numbered along this chain, P39880 (parent)
chain: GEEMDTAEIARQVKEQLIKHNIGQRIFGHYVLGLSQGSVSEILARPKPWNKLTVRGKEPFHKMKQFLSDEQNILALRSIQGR

Variants of: B1
TEST DESCRIPTION: abundance fitness (aPCA) (normalised: wild type 0, dead -1); higher = more abundant; growth selection in yeast, the domain comes from the species named
PROTOCOL CONDITIONS: Homo sapiens
PROPERTY NAME: abundance fitness
Output: the number by itself.

Exercise: I have this variant here, "G1R" , and I need its recorded abundance fitness.
Key: -0.041

Exercise: I have this variant here, "V54G" , and I need its recorded abundance fitness.
Key: -0.04

Exercise: I have this variant here, "P48S" , and I need its recorded abundance fitness.
Key: -0.168

Exercise: I have this variant here, "R82A" , and I need its recorded abundance fitness.
Key: 0.013
